Provenance of the data: patent US20160355475A1

- target.or.test.system: HDAC6 human recombinant (Homo sapiens)
- assay: HDAC6 enzyme activity inhibition (fluorimetric, in vitro)
- experimental.parameters: 37° C., 60 minutes; tested at 0.1, 1, 10, 100 and 1000 nM
readout.label: IC50 (nM)
Unit nM implied. Number only.

1. Cc1c(Cc2ccc(C(=O)NO)cc2)c2ccccc2n1CC1CN(CC(C)(C)F)C1 | 114

For this compound ( CC(C)(F)CN1CCC(Cn2c(-c3cc(F)cc(F)c3)c(Cc3ccc(C(=O)NO)cc3)c3ccccc32)CC1 ), measured IC50 is 587

For this compound ( Cc1nccn1CCn1c(C)c(Cc2ccc(C(=O)NO)cc2)c2ccccc21 ), measured IC50 is 9

For this compound ( Cc1c(Cc2ccc(C(=O)NO)cc2)c2ccccc2n1CCN1CCC(F)CC1 ), measured IC50 is 39

For this compound ( Cc1c(Cc2ccc(C(=O)NO)cc2)c2ccccc2n1CCN1C[C@@H](C)N(CC(C)(C)F)[C@@H](C)C1 ), measured IC50 is 75

For this compound ( Cc1c(Cc2ccc(C(=O)NO)cc2)c2ccccc2n1CCN1CC[C@H](O)C1 ), measured IC50 is 16

For this compound ( Cc1c(Cc2ccc(C(=O)NO)cc2)c2ccccc2n1CCCCN1CCN(CC(C)(C)F)CC1 ), measured IC50 is 76

For this compound ( Cc1c(Cc2ccc(C(=O)NO)cc2)c2cc(F)ccc2n1CC1CCN(CC(C)(C)F)CC1 ), measured IC50 is 378

For this compound ( Cc1c(Cc2ccc(C(=O)NO)cc2)c2ccccc2n1CC1CCN(Cc2cccc(-c3nccs3)c2)CC1 ), measured IC50 is 206

====

- target.or.test.system: HDAC6 human recombinant (Homo sapiens, UniProt Q9UBN7)
- assay: HDAC6 enzyme activity inhibition (fluorimetric, in vitro)
- experimental.parameters: 37° C., 60 minutes; tested at 0.1, 1, 10, 100 and 1000 nM
pIC50: −log10 of the molar value.
// map pIC50 onto a label; ranges low: < 7; moderate: ≥ 7 and < 8; high: ≥ 8

Lab log: CC(C)(F)CN1CCC(Cn2c(-c3ccccc3)c(Cc3ccc(C(=O)NO)cc3)c3ccccc32)CC1 — assign pIC50 category
low

Lab log: Cc1c(Cc2ccc(C(=O)NO)cc2)c2ccccc2n1CC1CCN(CC2(F)COC2)CC1 — assign pIC50 category
high

Lab log: Cc1c(Cc2ccc(C(=O)NO)cc2)c2ccccc2n1CC1CCN(CC2(C(F)(F)F)CCC2)CC1 — assign pIC50 category
low

Lab log: Cc1c(Cc2ccc(C(=O)NO)cc2)c2cc(F)ccc2n1CCN1CC[C@H](O)C1 — assign pIC50 category
moderate

Lab log: Cc1c(Cc2ccc(C(=O)NO)cc2)c2ccccc2n1CC1CCN(Cc2ccccn2)CC1 — assign pIC50 category
moderate

Lab log: Cc1c(Cc2ccc(C(=O)NO)cc2)c2ccccc2n1CC1CCN(CC2(F)CCN(C(=O)NC(C)C)CC2)CC1 — assign pIC50 category
moderate

Lab log: Cc1c(Cc2ccc(C(=O)NO)cc2)c2ccccc2n1CCN1CCC[C@H]1CO — assign pIC50 category
high

Lab log: CC(C)(F)CN1CCC(Cn2cc(Cc3ccc(C(=O)NO)cc3)c3c(F)cccc32)CC1 — assign pIC50 category
low

====

- target.or.test.system: HDAC6 human recombinant (Homo sapiens, UniProt Q9UBN7)
- Sequence (Q9UBN7 1-1215): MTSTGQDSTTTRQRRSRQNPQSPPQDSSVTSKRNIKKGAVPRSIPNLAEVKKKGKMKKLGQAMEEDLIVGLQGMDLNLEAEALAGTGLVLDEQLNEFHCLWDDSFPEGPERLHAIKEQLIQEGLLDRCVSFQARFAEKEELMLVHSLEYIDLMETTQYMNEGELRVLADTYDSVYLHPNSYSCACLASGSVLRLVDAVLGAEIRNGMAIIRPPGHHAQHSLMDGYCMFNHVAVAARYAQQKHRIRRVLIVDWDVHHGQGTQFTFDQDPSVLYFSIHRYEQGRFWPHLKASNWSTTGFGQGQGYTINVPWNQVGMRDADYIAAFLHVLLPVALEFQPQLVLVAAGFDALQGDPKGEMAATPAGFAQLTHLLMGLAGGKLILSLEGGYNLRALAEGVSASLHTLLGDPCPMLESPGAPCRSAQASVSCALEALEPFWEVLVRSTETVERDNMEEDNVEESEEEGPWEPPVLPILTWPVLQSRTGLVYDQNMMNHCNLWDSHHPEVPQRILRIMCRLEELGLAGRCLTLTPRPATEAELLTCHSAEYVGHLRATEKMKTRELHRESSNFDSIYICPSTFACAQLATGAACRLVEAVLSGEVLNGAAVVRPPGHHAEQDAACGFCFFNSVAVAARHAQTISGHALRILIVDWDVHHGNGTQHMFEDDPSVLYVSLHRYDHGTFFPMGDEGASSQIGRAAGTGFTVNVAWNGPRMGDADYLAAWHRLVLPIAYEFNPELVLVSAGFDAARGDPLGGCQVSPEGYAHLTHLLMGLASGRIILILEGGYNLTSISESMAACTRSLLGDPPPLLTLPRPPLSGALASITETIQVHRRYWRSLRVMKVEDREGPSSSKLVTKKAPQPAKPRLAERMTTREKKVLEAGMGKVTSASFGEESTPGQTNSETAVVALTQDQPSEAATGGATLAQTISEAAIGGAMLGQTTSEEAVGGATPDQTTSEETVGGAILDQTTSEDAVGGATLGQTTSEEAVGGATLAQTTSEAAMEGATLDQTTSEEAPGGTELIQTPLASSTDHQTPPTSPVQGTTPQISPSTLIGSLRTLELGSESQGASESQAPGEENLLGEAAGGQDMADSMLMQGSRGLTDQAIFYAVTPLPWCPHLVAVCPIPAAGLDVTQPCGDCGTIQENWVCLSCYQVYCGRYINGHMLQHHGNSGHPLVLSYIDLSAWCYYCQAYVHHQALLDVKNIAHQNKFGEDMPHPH
- assay: HDAC6 enzyme activity inhibition (fluorimetric, in vitro)
- experimental.parameters: 37° C., 60 minutes; tested at 0.1, 1, 10, 100 and 1000 nM
IC50 vs 80 nM: less than gives t; not less than gives f.

1. Cc1c(Cc2ccc(C(=O)NO)cc2)c2ccccc2n1CCN1CCCC(F)C1 (centres unmarked) | t
2. Cc1c(Cc2ccc(C(=O)NO)cc2F)c2ccccc2n1CC1CCN(CC(C)(C)F)CC1 | f
3. CC(C)(F)CN1CCC(Cn2c(-c3cncnc3)c(Cc3ccc(C(=O)NO)cc3)c3ccccc32)CC1 | t
4. Cc1c(Cc2ccc(C(=O)NO)cc2)c2ccccc2n1CC1CCN(CC(C)(C)F)CC1 | t
5. Cc1c(Cc2ccc(C(=O)NO)cc2)c2ccccc2n1CC1CCN(CCc2ccccc2)CC1 | f

Criterion: IC50 strictly below 80 nM. Is it met by Cc1c(Cc2ccc(C(=O)NO)cc2)c2ccccc2n1CCCN1CCN(CC(C)(C)F)CC1 ?
f

====

- target.or.test.system: HDAC6 human recombinant (Homo sapiens)
- Construct: purchased Calbiochem 382180
- assay: HDAC6 enzyme activity inhibition (fluorimetric, in vitro)
- Assay type: biochemical
- experimental.parameters: 37° C., 60 minutes; tested at 0.1, 1, 10, 100 and 1000 nM
IC50 vs 60 nM: less than gives label 1; not less than gives label 0.

Answered cases to consult:
1. Cc1c(Cc2ccc(C(=O)NO)cn2)c2ccccc2n1CCN1CCOCC1 | label 0
2. CC(C)(F)CN1CCC(Cn2cc(Cc3ccc(C(=O)NO)cc3)c3ccccc32)CC1 | label 0
3. COCCN1CCN(CCn2c(C)c(Cc3ccc(C(=O)NO)cc3)c3ccccc32)CC1 | label 1

Criterion: IC50 strictly below 60 nM. Is it met by CC(C)(F)CN1CCC(Cn2cc(Cc3ccc(C(=O)NO)cc3)c3ccc(F)cc32)CC1 ?
label 0

Criterion: IC50 strictly below 60 nM. Is it met by Cc1c(Cc2ccc(C(=O)NO)cc2)c2cc(F)ccc2n1CCN1CCC(F)CC1 ?
label 1

Criterion: IC50 strictly below 60 nM. Is it met by CC(C)(F)CN1CCC(Cn2cc(Cc3ccc(C(=O)NO)cc3)c3cccnc32)CC1 ?
label 0

Criterion: IC50 strictly below 60 nM. Is it met by Cc1c(Cc2ccc(C(=O)NO)cc2)c2ccccc2n1CC1CN(CC2(F)COC2)C1 ?
label 0

====

Below are compounds with their pIC50 as measured on UniProt:Q13547.
Sequence (Q13547 whole entry): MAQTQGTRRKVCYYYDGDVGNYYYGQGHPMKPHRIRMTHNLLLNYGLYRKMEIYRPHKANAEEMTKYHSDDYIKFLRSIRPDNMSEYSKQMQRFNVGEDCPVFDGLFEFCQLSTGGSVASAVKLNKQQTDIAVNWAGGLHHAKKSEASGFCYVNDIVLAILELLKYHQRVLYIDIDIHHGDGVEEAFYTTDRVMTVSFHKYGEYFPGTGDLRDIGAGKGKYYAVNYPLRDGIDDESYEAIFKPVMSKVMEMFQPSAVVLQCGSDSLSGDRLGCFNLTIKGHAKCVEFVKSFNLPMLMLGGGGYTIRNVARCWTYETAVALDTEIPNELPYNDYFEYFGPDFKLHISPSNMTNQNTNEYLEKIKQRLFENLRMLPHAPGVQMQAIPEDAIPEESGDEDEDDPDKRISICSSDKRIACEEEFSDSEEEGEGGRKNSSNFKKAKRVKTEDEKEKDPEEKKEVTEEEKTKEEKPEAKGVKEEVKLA
// pIC50 here means minus log10 of the molar concentration (mol/L)

Consider the following illustrative entries.
1. CC(C)(F)CN1CCC(Cn2cc(C(O)c3ccc(C(=O)NO)cc3)c3cccnc32)CC1 (stereo not drawn) | 5.21
2. Cc1c(Cc2ccc(C(=O)NO)cc2)c2ccccc2n1CCN1CC[C@H](O)C1 | 5.31
3. Cc1c(Cc2ccc(C(=O)NO)cc2)c2ccccc2n1CC1CCN(Cc2cccnc2)CC1 | 5.75

CC(=O)N1CCC(F)(CN2CCC(Cn3c(C)c(Cc4ccc(C(=O)NO)cc4)c4ccccc43)CC2)CC1 tested on UniProt:Q13547 gave pIC50: 5.04

Cc1c(Cc2ccc(C(=O)NO)cc2)c2ccccc2n1CCN1CCC(CF)C1 (stereo not drawn) tested on UniProt:Q13547 gave pIC50: 5.18
